Measured ED50 of individual entries
Test system: female white mice
METHOD_NOTES: animal or person
CONDITION_PARAMETERS: Mus musculus, po, read-out: Exploratory Loss Visual ED50, Table III; oral, mice
Counter-ions that a name gives are not always drawn.
OBSERVED_PROPERTY: ED50 (mg/kg)

1. CN1CC2c3cc(Cl)ccc3C3CC2(C1)c1ccccc13.Cl (stereo not shown) [Example 80] : 7
2. O=C(O)c1ccc2c(c1)[C@]13C[C@H]2c2ccccc2[C@H]1CN(CC1CCCC1)C3 (relative stereo) [Example 73, Hydrochloride] : 60
3. OCc1ccc2c(c1)[C@]13C[C@H]2c2ccccc2[C@H]1CN(CC1CCCC1)C3 (relative stereo) [Example 86, Hydrochloride] : 12
4. N#Cc1ccc2c(c1)[C@]13C[C@H]2c2ccccc2[C@H]1CN(CC1CCCC1)C3 (relative stereo) [Example 85, Hydrochloride] : 4.4
5. CC(=O)Nc1ccc2c(c1)[C@]13C[C@H]2c2ccccc2[C@H]1CN(CC1CCCC1)C3 (relative stereo) [Example 65, Hydrochloride] : 200
6. FC(F)c1ccc2c(c1)[C@]13C[C@H]2c2ccccc2[C@H]1CN(CC1CCCC1)C3 (relative stereo) [Example 78, Hydrochloride] : 7
7. O=[N+]([O-])c1ccc2c(c1)[C@]13C[C@H]2c2ccccc2[C@H]1CN(CC1CCCC1)C3 (relative stereo) [Example 63, Hydrochloride] : 12
8. ON=Cc1ccc2c(c1)[C@]13C[C@H]2c2ccccc2[C@H]1CN(CC1CCCC1)C3 (relative stereo) [Example 83, Hydrochloride] : 20
9. Clc1ccc2c(c1)[C@H]1CN(CC3CCCC3)C[C@@]13C[C@@H]2c1ccc(Cl)cc13 (relative stereo) [Example 79, Hydrochloride] : 7
10. Brc1ccc2c(c1)[C@]13C[C@H]2c2ccccc2[C@H]1CN(CC1CCCC1)C3 (relative stereo) [Example 70, Hydrochloride] : 20
11. CNS(=O)(=O)c1ccc2c(c1)[C@]13C[C@H]2c2ccccc2[C@H]1CN(CC1CCCC1)C3 (relative stereo) [Example 88, Hydrochloride] : 20
12. CNC(=O)ON=Cc1ccc2c(c1)[C@]13C[C@H]2c2ccccc2[C@H]1CN(CC1CCCC1)C3 (relative stereo) [Example 84, Hydrochloride] : 60
13. O=Cc1ccc2c(c1)[C@]13C[C@H]2c2ccccc2[C@H]1CN(CC1CCCC1)C3 (relative stereo) [Example 69, Hydrochloride] : 60

====

METHOD_NOTES: in vivo
CONDITION_PARAMETERS: mouse, in vivo, po, Tremors ED50, Table 1, mice
OBSERVED_PROPERTY: ED50 (mg/kg)

1. CC(C)(C)N1C[C@@H]2c3ccccc3[C@@H]3C[C@@]2(C1)c1ccccc13 (relative stereo) : 200
2. CN1CC2c3ccccc3C3CC2(C1)c1ccccc13 (stereo not drawn) : 30
3. c1ccc2c(c1)C1CC3(CN(CC4CC4)CC23)c2ccccc21 (stereo not drawn) : 100
4. C=CCN1CC2c3ccccc3C3CC2(C1)c1ccccc13 (stereo not drawn) : 187
5. CCN1CC2c3ccccc3C3CC2(C1)c1ccccc13 (stereo not drawn) : 200

====

METHOD_NOTES: in vivo
CONDITION_PARAMETERS: mouse, in vivo, po
Procedure: Groups of five Carworth CF1 S female mice, 16-20 g each, were fasted 16-22 hours before use. […] ED50 values were calculated for each parameter including death (LD50). […] The observer gently strokes the abdominal musculature of the mouse with thumb and forefinger. Flaccidity (or rarely, tenseness) is recorded. […]
Measured LD50 at 24 h of individual entries
OBSERVED_PROPERTY: LD50 at 24 h

1) C1=C(CN2CC3c4ccccc4C4CC3(C2)c2ccccc24)CCCC1 (stereo not shown) [Example 26] : > 324 mg/kg
2) CCC(CC)CN1CC2c3ccccc3C3CC2(C1)c1ccccc13 (stereo not shown) [Example 17] : > 324 mg/kg
3) c1ccc([C@@H]2C[C@H]2CN2CC3c4ccccc4C4CC3(C2)c2ccccc24)cc1 (relative stereo) [Example 55] : > 324 mg/kg
4) C1=C[C@@H]2C[C@H]1C[C@H]2CN1C[C@@H]2c3ccccc3[C@@H]3C[C@@]2(C1)c1ccccc13 (relative stereo) [Example 37] : 300 mg/kg

====

System: female white mice
METHOD_NOTES: animal or person
CONDITION_PARAMETERS: Mus musculus, po, read-out: Exploratory Loss Visual ED50, Table III; oral, mice
Counter-ions that a name gives are not always drawn.
OBSERVED_PROPERTY: ED50

1) Fc1ccc2c(c1)[C@]13C[C@H]2c2ccccc2[C@H]1CN(CC1CCCC1)C3 (relative stereo) [Example 77, Hydrochloride] : 7 mg/kg
2) C=CCC(O)c1ccc2c(c1)[C@]13C[C@H]2c2ccccc2[C@H]1CN(CC1CCCC1)C3 (stereo partly shown) [Example 75, Hydrochloride] : 60 mg/kg
3) FCc1ccc2c(c1)[C@]13C[C@H]2c2ccccc2[C@H]1CN(CC1CCCC1)C3 (relative stereo) [Example 87, Hydrochloride] : 12 mg/kg
4) Nc1ccc2c(c1)[C@H]1CN(CC3CCCC3)C[C@@]13C[C@@H]2c1ccc(N)cc13 (relative stereo) : 60 mg/kg
5) Cl.Clc1ccc2c(c1)C1CN(CC3CCCCC3)CC13CC2c1ccccc13 (stereo not shown) : 17 mg/kg
6) Clc1ccc2c(c1)[C@]13C[C@H]2c2ccccc2[C@H]1CN(CC1CCCC1)C3 (relative stereo) [Example 76, Hydrochloride] : 7 mg/kg
7) COC(=O)c1ccc2c(c1)[C@]13C[C@H]2c2ccccc2[C@H]1CN(CC1CCCC1)C3 (relative stereo) : 36 mg/kg

====

METHOD_NOTES: in vivo
CONDITION_PARAMETERS: mouse, in vivo, po
Structures can show the parent of a compound that is named as a salt.
Measured LD50 at 24 h of individual entries
OBSERVED_PROPERTY: LD50 at 24 h

1) CC(C1CCCC1)N1C[C@@H]2c3ccccc3[C@@H]3C[C@@]2(C1)c1ccccc13 (stereo partly shown) : > 324 mg/kg
2) CC1CCCC1CN1C[C@@H]2c3ccccc3[C@@H]3C[C@@]2(C1)c1ccccc13 (stereo partly shown) : > 324 mg/kg
3) c1ccc2c(c1)[C@@H]1C[C@@]3(CN(CC4CCCC4)C[C@H]23)c2ccccc21 (relative stereo) [Cyclopentylmethyl (free base)] : > 324 mg/kg
4) Fc1ccc2c(c1)[C@]13C[C@H]2c2ccccc2[C@H]1CN(CC1CCCC1)C3 (relative stereo) [Example 77, Hydrochloride] : > 324 mg/kg
5) c1ccc2c(c1)[C@@H]1C[C@@]3(CN(CC4CCCO4)C[C@H]23)c2ccccc21 (stereo partly shown) : > 324 mg/kg
6) c1ccc2c(c1)C1CC3(CN(CC4CC4)CC23)c2ccccc21 (stereo not shown) : 300 mg/kg
7) CNS(=O)(=O)c1ccc2c(c1)[C@]13C[C@H]2c2ccccc2[C@H]1CN(CC1CCCC1)C3 (relative stereo) [Example 88, Hydrochloride] : > 324 mg/kg
8) c1ccc2c(c1)[C@@H]1C[C@@]3(CN(C4CCCC4)C[C@H]23)c2ccccc21 (relative stereo) : > 324 mg/kg
9) c1ccc2c(c1)C1CC3(CN(CC4CCCCC4)CC23)c2ccccc21 (stereo not shown) : 320 mg/kg
10) CCCCCCCN1CC2c3ccccc3C3CC2(C1)c1ccccc13 (stereo not shown) : > 324 mg/kg
11) c1ccc2c(c1)C1CC3(CN(CCCCC4CCCCC4)CC23)c2ccccc21 (stereo not shown) : > 324 mg/kg
12) COCCN1C[C@@H]2c3ccccc3[C@@H]3C[C@@]2(C1)c1ccccc13 (relative stereo) : 300 mg/kg
13) CNC(=O)ON=Cc1ccc2c(c1)[C@]13C[C@H]2c2ccccc2[C@H]1CN(CC1CCCC1)C3 (relative stereo) [Example 84, Hydrochloride] : > 324 mg/kg
14) c1ccc(OCCN2C[C@@H]3c4ccccc4[C@@H]4C[C@@]3(C2)c2ccccc24)cc1 (relative stereo) : > 324 mg/kg
15) CCN1CC2c3ccccc3C3CC2(C1)c1ccccc13 (stereo not shown) : 200 mg/kg
16) C=C1CC(CN2CC3c4ccccc4C4CC3(C2)c2ccccc24)C1 (stereo not shown) : > 324 mg/kg

====

Measured ED50 of individual entries
System: female white mice
METHOD_NOTES: animal or person
CONDITION_PARAMETERS: Mus musculus, po, read-out: Reflexes Lift ED50, Table III; oral, mice
Where a name gives a salt, the structure may show the parent alone.
OBSERVED_PROPERTY: ED50 (mg/kg)

1. Nc1ccc2c(c1)[C@]13C[C@H]2c2ccccc2[C@H]1CN(CC1CCCC1)C3 (relative stereo) [Example 64, Hydrochloride] : 12
2. CC(=O)Nc1ccc2c(c1)[C@]13C[C@H]2c2ccccc2[C@H]1CN(CC1CCCC1)C3 (relative stereo) [Example 65, Hydrochloride] : 60
3. N#Cc1ccc2c(c1)[C@]13C[C@H]2c2ccccc2[C@H]1CN(CC1CCCC1)C3 (relative stereo) [Example 85, Hydrochloride] : 17
4. FC(F)c1ccc2c(c1)[C@]13C[C@H]2c2ccccc2[C@H]1CN(CC1CCCC1)C3 (relative stereo) [Example 78, Hydrochloride] : 20
5. Nc1ccc2c(c1)[C@H]1CN(CC3CCCC3)C[C@@]13C[C@@H]2c1ccc(N)cc13 (relative stereo) [Example 72] : 60
6. ON=Cc1ccc2c(c1)[C@]13C[C@H]2c2ccccc2[C@H]1CN(CC1CCCC1)C3 (relative stereo) [Example 83, Hydrochloride] : 60
